System: SK-MEL-5 melanoma
Experiment: NCI-60 one-dose screen, 48 h (100 = growth as untreated, 0 = no growth, -100 = all killed)
Settings: 10 µM unless noted
Experimental: Growth inhibition of the SK-MEL-5 human tumor cell line is measured as a screen for anti-cancer activity. Cells are grown in 96 well plates and exposed to the test compound for 48 hours. Compounds are tested at a single concentration, which is 10^-5 M for most compounds. The reported endpoint is percent growth (GI% or GIPRCNT), where numbers from 0 - 100% represent growth inhibition, and numbers from -100% - 0 represent cell death. For example, a value of 40 represents 60% growth inhibition. […]
This is part of a sample that, as a whole, favours compounds with a hit. Of some 83,000 tested, about 20% had one in any assay. The source made the active and inactive calls. The calls were made as follows: active = growth percent below 10; inactive = the rest.
ENDPOINT: growth

Below are 2 compounds. Give each one its growth.
1. O=c1n(CC2CO2)c(=O)n(CC2CO2)c(=O)n1CC1CO1 (stereo not drawn)
2. Cl

Completion:
86.7% (inactive)
105% (inactive)

Below are 8 compounds. Give each one its growth.
1. Cn1cnc([N+](=O)[O-])c1Sc1ncn[nH]1
2. CCCCCCCCCCNC(=O)CI
3. Nc1nc(N)c2[nH]cnc2n1
4. OCC1OC(O)C(O)C(O)C1O (stereo not drawn)
5. CCCCNc1ccc(Nc2ccccc2)cc1
6. N#CC(C#N)N=Nc1cc(Cl)ccc1Cl
7. Cc1cc(-c2cc(C)c(O)c(C)c2)cc(C)c1O
8. CC1CCC(C(C)C)C(NNC(N)=O)C1 (stereo not drawn)

Completion:
["104% (inactive)", "3.04% (active)", "98.1% (inactive)", "110% (inactive)", "67.3% (inactive)", "106% (inactive)", "73.9% (inactive)", "102% (inactive)"]

Below are 2 compounds. Give each one its growth.
1. CC1CCC2(OC1)OC1CC3C4CC=C5CC(O)CCC5(C)C4CCC3(C)C1C2C (stereo not drawn)
2. Cc1ccc(S(=O)(=O)c2ccccc2)cc1

Completion:
1: 105% (inactive); 2: 23.7% (inactive)

---

System: COLO 205 colon
Experiment: NCI-60 one-dose screen, 48 h (100 = growth as untreated, 0 = no growth, -100 = all killed)
Settings: 10 µM unless noted
Compounds without any hit were thinned out: in the full panel of roughly 83,000, 20% have a hit.
Kindly supply the reported growth values for the records listed here.
Answers are plain numbers, in %.

Solved entries (count: 3):
>  <MOLECULE>
COc1ccc(C(=O)CC(c2ccccc2)C(C#N)c2ccccc2)cc1 (configuration not stated)

>  <growth (%)>
110

$$$$
>  <MOLECULE>
CCOC(=O)c1c(C)cc(=O)oc1C

>  <growth (%)>
116

$$$$
>  <MOLECULE>
OCCN1CCCCCCC1

>  <growth (%)>
104

$$$$

Below are 4 molecules. Give each one its growth.
1. c1ccc(-c2nc3ccccc3s2)cc1
2. O=C(Cc1ccccc1)c1ccc(O)c(Cl)c1
3. CC1CCC(C(C)C)C(NNC(N)=O)C1 (configuration not stated)
4. Cc1cc(-c2ccc(N=Nc3ccc4c(S(=O)(=O)O)cc(S(=O)(=O)O)c(N)c4c3O)c(C)c2)ccc1N=Nc1ccc2c(S(=O)(=O)O)cc(S(=O)(=O)O)c(N)c2c1O

Completion:
110
55.4
110
111

Below are 5 molecules. Give each one its growth.
1. Cc1cc(-c2cc(C)c(O)c(C)c2)cc(C)c1O
2. CC1CCC2(OC1)OC1CC3C4CC=C5CC(O)CCC5(C)C4CCC3(C)C1C2C (configuration not stated)
3. OC1COC(OCc2ccccc2)C(O)C1O (configuration not stated)
4. O=c1n(CC2CO2)c(=O)n(CC2CO2)c(=O)n1CC1CO1 (configuration not stated)
5. c1ccc(CNCCNCc2ccccc2)cc1

Completion:
1. 115
2. 111
3. 115
4. 74.8
5. 109

---

Test system: NCI-H23 lung
Assay: NCI-60 one-dose screen, 48 h
Settings: 10 µM unless noted
This is part of a sample that, as a whole, favours compounds with a hit. Of some 83,000 tested, about 20% had one in any assay. The source made the active and inactive calls. The calls were made as follows: active = growth percent below 10; inactive = the rest.
Write down the outcome that applies. Available outcomes: active, inactive

>  <COMPOUND>
Nc1cc(N)c(N)cc1N

>  <CLASS NAME>
active

$$$$

Prompt: Fill in: this test's call for `Oc1ccc(Cc2ccccc2Cl)c(O)c1` is ___
Completion: inactive

Prompt: Try this compound too: `c1ccc(-c2nc3ccccc3s2)cc1`
Completion: inactive

Prompt: Try this compound too: `Nc1nc(N)c2[nH]cnc2n1`
Completion: inactive

Prompt: Try this compound too: `CCCCNc1ccc(Nc2ccccc2)cc1`
Completion: inactive

Prompt: Try this compound too: `CC(C)(O)C(=O)O`
Completion: inactive

---

System: SF-268 CNS
Assay: NCI-60 one-dose screen, 48 h (100 = growth as untreated, 0 = no growth, -100 = all killed)
Conditions: 10 µM unless noted
This is part of a sample that, as a whole, favours compounds with a hit. Of some 83,000 tested, about 20% had one in any assay.
ENDPOINT: growth (%)
Numbers only, in %.

Solved entries (count: 3):
>  <COMPOUND>
O=CN1CCCCC1

>  <ENDPOINT>
growth

>  <ENDPOINT RESULT>
105

$$$$
>  <COMPOUND>
O=C1OC(c2ccccc2)=N/C1=C\c1ccccc1

>  <ENDPOINT>
growth

>  <ENDPOINT RESULT>
103

$$$$
>  <COMPOUND>
CC(=O)NCC(=O)c1ccc([N+](=O)[O-])cc1

>  <ENDPOINT>
growth

>  <ENDPOINT RESULT>
99.1

$$$$

Below are 4 compounds. Give each one its growth.
1. OCC1OC(O)C(O)C(O)C1O (configuration not stated)
2. Cc1cc(-c2cc(C)c(O)c(C)c2)cc(C)c1O
3. Cn1cnc([N+](=O)[O-])c1Sc1ncn[nH]1
4. Nc1ncnc2c1ncn2C1OC(COP(=O)(O)O)C(O)C1O (configuration not stated)

Completion:
1: 102; 2: 92.9; 3: 106; 4: 126

---

System: SK-MEL-2 melanoma
Experiment: NCI-60 one-dose screen, 48 h (100 = growth as untreated, 0 = no growth, -100 = all killed)
Details: 10 µM unless noted
Experimental: Growth inhibition of the SK-MEL-2 human tumor cell line is measured as a screen for anti-cancer activity. Cells are grown in 96 well plates and exposed to the test compound for 48 hours. Compounds are tested at a single concentration, which is 10^-5 M for most compounds. The reported endpoint is percent growth (GI% or GIPRCNT), where numbers from 0 - 100% represent growth inhibition, and numbers from -100% - 0 represent cell death. For example, a value of 40 represents 60% growth inhibition. […]
About 83,000 compounds went through this panel and 20% of them were active in at least one assay; those are over-represented in the sample as a whole.
Kindly supply the reported growth values for the records listed here.
Numbers only, in %.

>  <COMPOUND>
c1ccc2c(c1)OC1OC2Oc2ccccc21

>  <TEST TARGET>
SK-MEL-2 melanoma

>  <ENDPOINT>
growth

>  <UNIT TEXT>
%

>  <ENDPOINT RESULT>
87.7

$$$$
>  <COMPOUND>
CC(C)NC(=O)N/C=C(\C#N)C(N)=O

>  <TEST TARGET>
SK-MEL-2 melanoma

>  <ENDPOINT>
growth

>  <UNIT TEXT>
%

>  <ENDPOINT RESULT>
101

$$$$

Below are 2 compounds. Give each one its growth.
1. CCN(CCNS(C)(=O)=O)c1ccc(N)c(C)c1
2. CCCCCCCCCCNC(=O)CI

Completion:
[21.6, -50.1]

---

System: SK-OV-3 ovarian
Experiment: NCI-60 one-dose screen, 48 h (100 = growth as untreated, 0 = no growth, -100 = all killed)
Conditions: 10 µM unless noted
Compounds without any hit were thinned out: in the full panel of roughly 83,000, 20% have a hit. Active and inactive are the calls of the source. How the source made its calls: active means growth percent below 10; inactive means the rest.
Kindly supply the reported growth values for the records listed here.

Solved entries (count: 3):
>  <COMPOUND>
O=C(/C=C/c1ccccc1)c1ccccc1

>  <growth>
91.7% (inactive)

$$$$
>  <COMPOUND>
CCCCCCCCCCCCCCCc1ccc(N)c(OC2OC(CO)C(O)C(O)C2O)c1 (stereo not given)

>  <growth>
149% (inactive)

$$$$
>  <COMPOUND>
O=C1OC(c2ccccc2)=N/C1=C\c1ccccc1

>  <growth>
97.2% (inactive)

$$$$

Below are 2 compounds. Give each one its growth.
1. O=[N+]([O-])c1cccc(SSc2cccc([N+](=O)[O-])c2)c1
2. CC(C)NC(=O)N/C=C(\C#N)C(N)=O

Completion:
1: 97.8% (inactive); 2: 104% (inactive)
